- Read-out: growth arrest and DNA damage 45 (GADD45G), GADD45G (gene 10912)
- method: LTEA_HepaRG_GADD45G: Life Technologies and Expression Analysis (LTEA) Assay for growth arrest and DNA damage 45 (GADD45G) using HepaRG (AID 2283499)
- particulars: mRNA level, 48 h; actives raise or lower the signal
Calls of active or inactive are those of the source. Rule for the calls: active = hit-call score of the fitted dose curve at least 0.9, where 1 is the maximum; inactive = score below 0.9.
Please answer using one outcome listed in active, inactive

{"columns": ["molecule", "groupLabel"],
 "data": [
  ["O=C(O)c1ccccc1C(c1ccc(O)cc1)c1ccc(O)cc1", "inactive"],
  ["CCCCCCCCC(=O)O", "inactive"],
  ["CC(=O)NC1(c2cccc(F)c2)CCN(CC[C@@]2(c3ccc(Cl)c(Cl)c3)CN(c3ccccc3)C(=O)CO2)CC1", "active"],
  ["CCC(=C(c1ccc(O)cc1)c1ccc(OCCN(C)C)cc1)c1ccccc1", "active"],
  ["C[C@@H]1C[C@H]2[C@@H]3CCC4=CC(=O)C=C[C@]4(C)[C@@]3(F)[C@@H](O)C[C@]2(C)[C@@]1(O)C(=O)COP(=O)(O)O", "inactive"]
]}

Prompt line: In this assay, the call recorded for CCCCCCCCCCCCN1CCCC1=O was what?
Response line: inactive

Prompt line: Could you kindly confirm the outcome this assay logged for CCCCCCCCCCCCCCCS(=O)(=O)Oc1ccccc1 ?
Response line: inactive

Prompt line: Hi, sorry to bother you, what did the test record for ClC1=C(Cl)C(Cl)(Cl)C(Cl)=C1Cl ?
Response line: inactive

Prompt line: Can you look up the reported call for Nc1cccc2c(N)cccc12 for me?
Response line: inactive

Prompt line: Returns: the outcome recorded for CCCCCCCCCCCCc1ccccc1S(=O)(=O)O in this assay.
Response line: inactive

Prompt line: Any idea what this test logged for N#C[C@@H]1CC(F)(F)CN1C(=O)CNC1CC2CCC(C1)N2c1ncccn1 (some centres undefined) ?
Response line: inactive

Prompt line: Which outcome was entered for the molecule C=C(C)C(=O)OCCC(F)(F)C(F)(F)C(F)(F)C(F)(F)C(F)(F)C(F)(F)F in this test?
Response line: inactive

Prompt line: Which outcome was entered for the molecule C#C[C@]1(O)CC[C@H]2[C@@H]3CCC4=CC(=O)CC[C@@H]4[C@H]3CC[C@@]21C in this test?
Response line: inactive

Prompt line: How was CC(C)CCCCCCOC(=O)CCCCC(=O)OCCCCCCC(C)C classified in this test?
Response line: inactive

Prompt line: Per the records of this test, what outcome belongs to CC(C)(C)c1ccc(O)c(C(C)(C)C)c1 ?
Response line: inactive

Prompt line: What call does the record list for CCCCOCCO ?
Response line: inactive

Prompt line: How was CN1CCN(c2ccccc2/C=C2\SCCN(c3ccc(Cl)c(Cl)c3)C2=O)CC1 classified in this test?
Response line: inactive

Prompt line: // outcome(item) with item = CCCCCCCCOC(=O)CCCCCCCCC(=O)OCCCCCCCC
Response line: inactive

Prompt line: What classification did CC1=C(/C=C/C(C)=C/C=C/C(C)=C/C(=O)O)C(C)(C)CCC1 end up with in this test?
Response line: inactive

Prompt line: Which outcome was assigned to CC(C)(C)CC(C)(C)c1ccc(O)c(-n2nc3ccccc3n2)c1 in this test?
Response line: inactive

Prompt line: Please let me know the test result on file for COc1ccc([N+](=O)[O-])cc1N .
Response line: inactive

Prompt line: How did this test come out for CCOC(=O)CC(O)(CC(=O)OCC)C(=O)OCC ?
Response line: inactive

Prompt line: For this molecule, state the assay outcome: Cc1oc(-c2ccccc2)nc1CCOc1ccc(C[C@H](Nc2ccccc2C(=O)c2ccccc2)C(=O)O)cc1
Response line: active

Prompt line: Assay result, entry OCCC(F)(F)C(F)(F)C(F)(F)C(F)(F)C(F)(F)C(F)(F)F — outcome?
Response line: inactive

Prompt line: Please share the test call associated with CCc1nn(C2CCCCC2)c2cc(C3(C#N)CCC(C(=O)O)CC3)ccc12 (centres undefined) .
Response line: active

Prompt line: Test call for this molecule, please: c1ccc2c(c1)Cc1ccccc1-2
Response line: inactive

###

- method: TOX21_p53_BLA_p5_viability: Viability Assessment in the Tox21 HCT-116 p53 Agonism Beta-lactamase Assay, Phase 5 (AID 2283600)
Records with an inconclusive call do not appear. Active and inactive are the calls of the source. The calls were made as follows: active = hit-call score of the fitted dose curve at least 0.9, where 1 is the maximum; inconclusive = response in the unintended direction; inactive = score below 0.9.
I would appreciate it if you answered using one of these outcomes: active, inactive

{"columns": ["compound", "groupLabel"],
 "data": [
  ["CC#C[C@]1(O)CC[C@H]2[C@@H]3CCC4=CC(=O)CCC4=C3[C@@H](c3ccc(N(C)C)cc3)C[C@@]21C", "inactive"],
  ["CC(O)CO (stereo unspecified)", "inactive"],
  ["CCc1nn(C2CCCCC2)c2cc(C3(C#N)CCC(C(=O)O)CC3)ccc12 (stereo unspecified)", "inactive"],
  ["CC1=C(/C=C/C(C)=C/C=C/C(C)=C/C(=O)O)C(C)(C)CCC1", "inactive"],
  ["Oc1cccc(O)c1", "inactive"],
  ["CCCCOCCO", "inactive"],
  ["Nc1cccc2c(N)cccc12", "inactive"],
  ["CC(C)(C)c1cccc(C(C)(C)C)c1O", "inactive"]
]}

Prompt line: How did this test come out for c1ccc2cc3c(ccc4ccccc43)cc2c1 ?
Response line: inactive

Prompt line: Dear colleague, could you share the recorded outcome for O=C(OCCOCCOC(=O)c1ccccc1)c1ccccc1 when you have a moment?
Response line: inactive

Prompt line: Status in this test for OC1CCC(C2CCCCC2)CC1 (stereo unspecified) ?
Response line: inactive

Prompt line: Recorded test call requested for O=c1c(-c2ccc(O)cc2)coc2cc(O)ccc12
Response line: inactive

Prompt line: Dear colleague, could you share the recorded outcome for O=[N+]([O-])c1ccc(O)cc1 when you have a moment?
Response line: inactive

Prompt line: Please share the test call associated with OC1CCCCC1 .
Response line: inactive

Prompt line: Query: recorded result category for Cc1ccc(S(=O)(=O)O)c(C)c1 in this test
Response line: inactive

Prompt line: Recorded call for NC(=O)N1C(=O)C(C(=O)c2cc(Cl)cs2)c2cc(F)c(Cl)cc21 (stereo unspecified) ?
Response line: inactive

Prompt line: What is the recorded call for this compound in the test? ClC1=C(Cl)C(Cl)(Cl)C(Cl)=C1Cl
Response line: inactive

Prompt line: What is the recorded call for this compound in the test? Oc1cc2ccccc2c2ccccc12
Response line: active

Prompt line: Any idea what this test logged for CCN(CC)CCNc1ccc(CNC=O)c2sc3ccc(OC)cc3c(=O)c12 ?
Response line: inactive

Prompt line: Per the records of this test, what outcome belongs to CC(=O)NC1(c2cccc(F)c2)CCN(CC[C@@]2(c3ccc(Cl)c(Cl)c3)CN(c3ccccc3)C(=O)CO2)CC1 ?
Response line: active

Prompt line: What did the test return for CCCCC(CC)COC(=O)CCCCC(=O)OCc1ccccc1 (stereo unspecified) ?
Response line: inactive

###

- Read-out: Macrophage colony-stimulating factor (MCSF), CSF1 (gene 1435)
- method: BSK_LPS_MCSF: BioMAP Diversity Plus: LPS Assay for Macrophage colony-stimulating factor (MCSF) Biomarker Activity (AID 2283083)
- particulars: primary human HUVEC with PBMC; actives raise or lower the signal
Active and inactive are the calls of the source. The calls were made as follows: active = hit-call score of the fitted dose curve at least 0.9, where 1 is the maximum; inactive = score below 0.9.
Hi there, use one of these labels in your reply, thanks! active, inactive

Study these solved cases before continuing.
{"columns": ["molecule", "groupLabel"],
 "data": [
  ["CCCCCCCCC(=O)O", "inactive"],
  ["COCC(C)OCC(C)O (configuration not stated)", "inactive"],
  ["CC[C@H](C)[C@@H](C(=O)O)n1sc2ccccc2c1=O", "inactive"],
  ["O=C(O)Cc1cc(I)c(Oc2cc(I)c(O)c(I)c2)c(I)c1", "inactive"],
  ["CCCCC(CC)COC(=O)CCCCC(=O)OCC(CC)CCCC (configuration not stated)", "inactive"],
  ["CC(C)(C)c1ccc(O)c(C(C)(C)C)c1", "active"]
]}

For the next question, use this molecule.
Prompt line: Could you check what this test reported for O=C(O)c1ccccc1C(c1ccc(O)cc1)c1ccc(O)cc1 ?
Response line: inactive

###

- method: ATG_RORE_CIS: Attagene CIS-FACTORIAL HepG2 Assay for human RAR-related Orphan Receptor Element (RORE) (AID 2282959)
- particulars: HepG2 Attagene cis-factorial RORE reporter, mRNA; actives raise or lower the signal
Activity calls are given as the source filed them. Rule for the calls: active = hit-call score of the fitted dose curve at least 0.9, where 1 is the maximum; inactive = score below 0.9.
observedProperty: outcome

Examples from the recorded data:
{"columns": ["entrySmiles", "obsValue"],
 "data": [
  ["CCCCC[C@H](O)CC(=O)CCc1ccc(O)c(OC)c1", "inactive"],
  ["C=C(C)C(=O)OCCC(F)(F)C(F)(F)C(F)(F)C(F)(F)C(F)(F)C(F)(F)F", "inactive"],
  ["CCCCCCCCC(=O)O", "inactive"],
  ["OC1CCCCC1", "inactive"],
  ["CCCCCCCCCCCCc1ccccc1S(=O)(=O)O", "inactive"],
  ["CC(=O)CC(C)(C)O", "inactive"]
]}

Okay, next one:
Prompt line: Entry FC(F)(I)C(F)(F)C(F)(F)C(F)(F)C(F)(F)C(F)(F)I has what outcome?
Response line: inactive

Provenance of the data: PubChem BioAssay (EPA / NIEHS)
